# Test system: HOP-92
# measurementNotes: NCI tumour cell line growth inhibition, 48 h
The source made the active and inactive calls. Cut-off read from the data, not from the text of the source: active = GI50 up to about 1.1 µM and inactive = higher.
Output constraint: value belongs to active, inactive

# molecule, studyTarget, labelValue
records = [
    ("COC(=O)CCC(C)[C@H]1CCC2C3C(C[C@H](OC(C)=O)[C@@]21C)[C@@]1(C)CCC2(C[C@H]1C[C@H]3OC(C)=O)OOC1(CCCCCCC1)OO2 (stereo partly drawn)", "HOP-92", "inactive"),
    ("CSC12c3cc(C)n(-c4ccc(I)cc4)c3CC(C)(C)CN1C(=O)C2Oc1ccccc1 (stereo not drawn)", "HOP-92", "inactive"),
    ("O=C1NC(Cc2ccc(O)cc2)C(=O)N2CCCC12 (stereo not drawn)", "HOP-92", "inactive"),
    ("O=[N+]([O-])c1ccc2c(c1)Cc1cc(/N=C/c3ccc4c(c3)OCO4)ccc1-2", "HOP-92", "inactive"),
    ("Cc1ccc(-n2nncc2[Si](C)(C)C)s1", "HOP-92", "inactive"),
]

Ask: Per the records of this test, what outcome belongs to CC(=O)OC1CCC2(C)C3CCC4(C)C(c5ccc(=O)oc5)CC5OC54C3CCC2(O)C1 (stereo not drawn) ?
Result: inactive

Ask: Per the records of this test, what outcome belongs to O=C(OC[C@H]1C[C@H]2C(=O)CCC[C@H]2O1)c1ccccc1 ?
Result: inactive
